measurement.target: galectin-3 (Homo sapiens (Human), UniProt P17931)
Sequence (P17931 whole entry): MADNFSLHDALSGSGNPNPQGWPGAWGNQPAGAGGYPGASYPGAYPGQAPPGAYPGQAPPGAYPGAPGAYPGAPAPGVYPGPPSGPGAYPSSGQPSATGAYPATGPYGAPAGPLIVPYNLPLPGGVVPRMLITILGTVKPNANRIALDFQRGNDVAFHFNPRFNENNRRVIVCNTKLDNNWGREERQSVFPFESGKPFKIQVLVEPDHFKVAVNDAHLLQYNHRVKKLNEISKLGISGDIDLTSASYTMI
test.protocol: Fluorescence anisotropy assay, galectin-3 affinity
Assay type: binding
recorded.conditions: inhibition of galectin / fluorescein tagged saccharide probe interaction
measurement.type: Kd (nM)
Provide only the numeric value, understood in nM.

INSERT INTO assay_data (structure, measurement_type, units_of_measure, test_result) VALUES
  ('N#Cc1ncc(S[C@H]2O[C@H](CO)[C@H](O)[C@H](n3cc(-c4cc(F)c(F)c(F)c4)nn3)[C@H]2O)cc1Br', 'Kd', 'nM', 22),
  ('N#Cc1ncc(Br)cc1S[C@H]1O[C@H](CO)[C@H](O)[C@H](n2cc(-c3cc(F)c(Cl)c(F)c3)nn2)[C@H]1O', 'Kd', 'nM', 11),
  ('OC[C@H]1O[C@H](Sc2ccc(Cl)c(Cl)c2)[C@H](O)[C@@H](n2cc(-c3cncc(Cl)c3)nn2)[C@H]1O', 'Kd', 'nM', 694),
  ('OC[C@H]1O[C@H](Sc2cncc(Cl)c2)[C@H](O)[C@@H](n2cc(-c3ccc(Cl)c(F)c3)nn2)[C@H]1O', 'Kd', 'nM', 34),
  ('N#Cc1ncc(Cl)cc1S[C@H]1O[C@H](CO)[C@H](O)[C@H](n2cc(-c3cc(F)c(F)c(F)c3)nn2)[C@H]1O', 'Kd', 'nM', 29);

Okay, next one:
The reported value for "N#Cc1cnc(S[C@H]2O[C@H](CO)[C@H](O)[C@H](n3cc(-c4cc(F)c(F)c(F)c4)nn3)[C@H]2O)cc1Cl" in terms of Kd is 57

---

measurement.target: galectin-3 (Homo sapiens (Human), UniProt P17931)
test.protocol: Fluorescence anisotropy assay, galectin-3 affinity
recorded.conditions: inhibition of galectin / fluorescein tagged saccharide probe interaction
measurement.type: Kd (nM)
# output: bare number, implied unit nM

Recorded results for 5 molecules are shown here.
INSERT INTO assay_data (structure, measurement_target, test_result) VALUES
  ('OC[C@H]1O[C@H](Sc2cc(Cl)ccn2)[C@H](O)[C@@H](n2cc(-c3cc(F)c(F)c(F)c3)nn2)[C@H]1O', 'galectin-3 (Homo sapiens (Human), UniProt P17931)', 120),
  ('N#Cc1ncc(S[C@H]2O[C@H](CO)[C@H](O)[C@H](n3cc(-c4cc(F)c(Cl)c(F)c4)nn3)[C@H]2O)cc1Br', 'galectin-3 (Homo sapiens (Human), UniProt P17931)', 16),
  ('N#Cc1ncc(Cl)cc1S[C@H]1O[C@H](CO)[C@H](O)[C@H](n2cc(-c3cc(F)c(Cl)c(F)c3)nn2)[C@H]1O', 'galectin-3 (Homo sapiens (Human), UniProt P17931)', 11),
  ('OC[C@H]1O[C@H](Sc2cncc(Cl)c2)[C@H](O)[C@@H](n2cc(-c3ccc(Cl)c(Cl)c3)nn2)[C@H]1O', 'galectin-3 (Homo sapiens (Human), UniProt P17931)', 31),
  ('OC[C@H]1O[C@H](Sc2ccnc(Cl)c2)[C@H](O)[C@@H](n2cc(-c3cc(F)c(F)c(F)c3)nn2)[C@H]1O', 'galectin-3 (Homo sapiens (Human), UniProt P17931)', 86);

Switching to the query record.
Recorded Kd (molecule "N#Cc1cnc(S[C@H]2O[C@H](CO)[C@H](O)[C@H](n3cc(-c4cc(F)c(F)c(F)c4)nn3)[C@H]2O)cc1Br" ): 27

---

measurement.target: galectin-3 (Homo sapiens (Human))
test.protocol: Fluorescence anisotropy assay, galectin-3 affinity
Type: binding
recorded.conditions: inhibition of galectin / fluorescein tagged saccharide probe interaction
measurement.type: Kd (nM)
# unit: nM | format: bare number

Examples with their reported Kd follow.
INSERT INTO assay_data (structure, units_of_measure, test_result) VALUES
  ('N#Cc1ncc(S[C@H]2O[C@H](CO)[C@H](O)[C@H](n3cc(-c4cc(F)c(Cl)c(F)c4)nn3)[C@H]2O)cc1Cl', 'nM', 18),
  ('OC[C@H]1O[C@H](Sc2cncc(Cl)c2)[C@H](O)[C@@H](n2cc(-c3cc(F)c(Br)c(F)c3)nn2)[C@H]1O', 'nM', 28);

Measured Kd, "OC[C@H]1O[C@H](Sc2cncc(Cl)c2)[C@H](O)[C@@H](n2cc(-c3cc(F)c(C(F)(F)F)c(F)c3)nn2)[C@H]1O" : 97

---

pKd for assorted compounds
measurement.target: galectin-3 (Homo sapiens (Human), UniProt P17931)
test.protocol: Fluorescence anisotropy assay, galectin-3 affinity
recorded.conditions: inhibition of galectin / fluorescein tagged saccharide probe interaction
Note on pKd: it is the negative log10 of concentration, concentration in mol/L.

INSERT INTO measurements (structure, measurement_target, test_result) VALUES
  ('OC[C@H]1O[C@H](Sc2cncc(Cl)c2)[C@H](O)[C@@H](n2cc(-c3cc(F)c(Cl)c(F)c3)nn2)[C@H]1O', 'galectin-3 (Homo sapiens (Human), UniProt P17931)', 7.66),
  ('N#Cc1c(F)cc(-c2cn([C@@H]3[C@@H](O)[C@@H](Sc4cncc(Cl)c4)O[C@H](CO)[C@@H]3O)nn2)cc1F', 'galectin-3 (Homo sapiens (Human), UniProt P17931)', 6.74),
  ('Cc1c(F)cc(-c2cn([C@@H]3[C@@H](O)[C@@H](Sc4cncc(Cl)c4)O[C@H](CO)[C@@H]3O)nn2)cc1F', 'galectin-3 (Homo sapiens (Human), UniProt P17931)', 7.74),
  ('OC[C@H]1O[C@H](Sc2cncc(Cl)c2)[C@H](O)[C@@H](n2cc(-c3cc(F)c(Cl)c(Cl)c3)nn2)[C@H]1O', 'galectin-3 (Homo sapiens (Human), UniProt P17931)', 7.57),
  ('N#Cc1ncc(Br)cc1S[C@H]1O[C@H](CO)[C@H](O)[C@H](n2cc(-c3cc(F)c(F)c(F)c3)nn2)[C@H]1O', 'galectin-3 (Homo sapiens (Human), UniProt P17931)', 7.66);

--- query ---
pKd reading for "OC[C@H]1O[C@H](Sc2ccc(Cl)c(Cl)c2)[C@H](O)[C@@H](n2cc(-c3cncc(F)c3)nn2)[C@H]1O" : 6.12
